Tested on: E. coli ATCC 29222
protocol: Antibacterial assay (MIC)
Type: cell-based
testConditions: E. coli ATCC 29222, MHB, 37° C.
*1 amine or outer side, *2 acyl side, *3 side chain or, on linkers, in order; H or OH if unused. Bridges are numbered along the chain shown (N, C = ends). Roman numbers before positions name the chains, in order. Where no end group is shown, it is not given here. [ ]: non-standard residue; d: D form. The star is where a group is joined. X2 = O=C1NC(=O)C(SC[C@@H](CO)N[*:2])=C1SC[C@@H](CO)N[*:1]; BMH = O=C1CC([*:1])C(=O)N1CCCCCCN1C(=O)CC([*:2])C1=O; Maleimide(3,4-diyl) = O=C1NC(=O)C([*:2])=C1[*:1]; pXylylene = c1cc(C[*:2])ccc1C[*:1]; Ac6c = NC1(C(=O)O)CCCCC1; X1 = C(=C\C[*:2])/C[*:1]; Dab = NCC[C@H](N)C(=O)O; NHNH2 = NN*
substances and their reported Antibacterial activity, MIC
State just the number; it will be interpreted in µM.

A selection of reference data follows.
substance	unitSymbol	Antibacterial activity, MIC
I: [Ac6c]RPDKPRPYLPRPRPPRPVR[Dab]C-NHNH2 / II: [Ac6c]RPDKPRPYLPRPRPPRPVR[Dab]C-NHNH2 / III: [Ac6c]RPDKPRPYLPRPRPPRPVR / IV: [Ac6c]RPDKPRPYLPRPRPPRPVR (amide I:21-III:C, II:21-IV:C; linker I:22-II:22 via pXylylene) [tetramer-xylene-NHNH2]	µM	6.24
I: H-[Ac6c]RPDKPRPYLPRPRPPRPVR[Dab]C-NHNH2 / II: H-[Ac6c]RPDKPRPYLPRPRPPRPVR[Dab]C-NHNH2 / III: H-[Ac6c]RPDKPRPYLPRPRPPRPVR / IV: H-[Ac6c]RPDKPRPYLPRPRPPRPVR (amide I:21-III:C, II:21-IV:C; linker I:22-II:22 via Maleimide(3,4-diyl)) [tetramer-DTM-NHNH2]	µM	0.93
I: H-[Ac6c]RPDKPRPYLPRPRPPRPVR[Dab]-NH2 / II: H-[Ac6c]RPDKPRPYLPRPRPPRPVR (amide I:21-II:C) [A3-APO]	µM	2.58
I: H-[Ac6c]RPDKPRPYLPRPRPPRPVR[Dab]-NHNH2 / II: H-[Ac6c]RPDKPRPYLPRPRPPRPVR (amide I:21-II:C) [dimer-NHNH2]	µM	2.99
I: [Ac6c]RPDKPRPYLPRPRPPRPVR[Dab]C-NHNH2 / II: [Ac6c]RPDKPRPYLPRPRPPRPVR[Dab]C-NHNH2 / III: [Ac6c]RPDKPRPYLPRPRPPRPVR / IV: [Ac6c]RPDKPRPYLPRPRPPRPVR (amide I:21-III:C, II:21-IV:C; linker I:22-II:22 via BMH) [tetramer-bismal-NHNH2]	µM	3.93

# Antibacterial activity, MIC lookup, item I: [Ac6c]RPDKPRPYLPRPRPPRPVR[Dab] / II: [Ac6c]RPDKPRPYLPRPRPPRPVR[Dab] / III: [Ac6c]RPDKPRPYLPRPRPPRPVR / IV: [Ac6c]RPDKPRPYLPRPRPPRPVR (amide I:21-III:C, II:21-IV:C; linker I:C-II:C via X2) [tetramer-DTM-ol]
3.67

// returns reported Antibacterial activity, MIC for input I: [Ac6c]RPDKPRPYLPRPRPPRPVR[Dab]C-NHNH2 / II: [Ac6c]RPDKPRPYLPRPRPPRPVR[Dab]C-NHNH2 / III: [Ac6c]RPDKPRPYLPRPRPPRPVR / IV: [Ac6c]RPDKPRPYLPRPRPPRPVR (amide I:21-III:C, II:21-IV:C; linker I:22-II:22 via X1) [tetramer-butene-NHNH2]
0.94

For the substance I: H-[Ac6c]RPDKPRPYLPRPRPPRPVR[Dab]C-NH2 / II: H-[Ac6c]RPDKPRPYLPRPRPPRPVR[Dab]C-NH2 / III: H-[Ac6c]RPDKPRPYLPRPRPPRPVR / IV: H-[Ac6c]RPDKPRPYLPRPRPPRPVR (amide I:21-III:C, II:21-IV:C; linker I:22-II:22 via Maleimide(3,4-diyl)) [tetramer-DTM-NH2] , what Antibacterial activity, MIC is on record?
2.96

Origin of measurements: patent US20200323950A1
